The reported numbers originate from patent US20250381179A1.

# experiment: Phase 1 study: plasma pharmacokinetics in patients
# Format: in vivo, human
# particulars: human, plasma, po, 600 mg, patient plasma after oral (1-g) 600 mg QD, C1D15, n = 4, mean; read-out: AUC0-24 h of (1-h)
measure: AUC(0-t) (ng·h/mL)
// units = ng·h/mL; emit number, no label

Enquiry: Provide only the value of recorded AUC(0-t) for O=C1CC[C@@H](N2Cc3cc(N4CCN(CC5CCN(c6ccc([C@@H]7c8ccc(O)cc8OC[C@@H]7c7ccccc7)cc6F)CC5)CC4)ccc3C2=O)C(=O)N1
Return: 18700

----------
# experiment: Phase 1 study: plasma pharmacokinetics in patients
# Format: in vivo, human
# particulars: human, plasma, po, 200 mg, patient plasma, oral (1-g) 200 mg QD, C1D1, n = 12, *median value; read-out: Tmax*
measure: Tmax (h)
// units = h; emit number, no label

Enquiry: Provide only the value of recorded Tmax for O=C1CC[C@H](N2Cc3cc(N4CCN(CC5CCN(c6ccc([C@@H]7c8ccc(O)cc8OC[C@@H]7c7ccccc7)cc6F)CC5)CC4)ccc3C2=O)C(=O)N1
Return: 5.5

----------
# experiment: Phase 1 study: plasma pharmacokinetics in patients
# Format: in vivo, human
# particulars: human, plasma, po, 100 mg, patient plasma after oral (1-g) 100 mg QD, C1D15, n = 2, mean; read-out: AUC0-24 h of (1-h)
measure: AUC(0-t) (ng·h/mL)
// units = ng·h/mL; emit number, no label

Enquiry: Provide only the value of recorded AUC(0-t) for O=C1CC[C@@H](N2Cc3cc(N4CCN(CC5CCN(c6ccc([C@@H]7c8ccc(O)cc8OC[C@@H]7c7ccccc7)cc6F)CC5)CC4)ccc3C2=O)C(=O)N1
Return: 7080

----------
# experiment: Phase 1 study: plasma pharmacokinetics in patients
# Format: in vivo, human
# particulars: human, plasma, po, 200 mg, patient plasma, oral (1-g) 200 mg QD, C1D15 (steady state), n = 12, mean; read-out: AUC0-24 h
measure: AUC(0-t) (ng·h/mL)
// units = ng·h/mL; emit number, no label

Enquiry: Provide only the value of recorded AUC(0-t) for O=C1CC[C@H](N2Cc3cc(N4CCN(CC5CCN(c6ccc([C@@H]7c8ccc(O)cc8OC[C@@H]7c7ccccc7)cc6F)CC5)CC4)ccc3C2=O)C(=O)N1
Return: 26000

----------
# experiment: Phase 1 study: plasma pharmacokinetics in patients
# Type: in vivo, human
# particulars: human, plasma, po, 100 mg, patient plasma after oral (1-g) 100 mg QD, C1D15, n = 2, mean; read-out: Cmax of (1-h)
measure: Cmax (ng/mL)
// units = ng/mL; emit number, no label

Enquiry: Provide only the value of recorded Cmax for O=C1CC[C@@H](N2Cc3cc(N4CCN(CC5CCN(c6ccc([C@@H]7c8ccc(O)cc8OC[C@@H]7c7ccccc7)cc6F)CC5)CC4)ccc3C2=O)C(=O)N1
Return: 326

----------
# experiment: Phase 1 study: plasma pharmacokinetics in patients
# Type: in vivo, human
# particulars: human, plasma, po, 200 mg, patient plasma after oral (1-g) 200 mg QD, C1D1, n = 12, mean; read-out: Cmax of (1-h)
measure: Cmax (ng/mL)
// units = ng/mL; emit number, no label

Enquiry: Provide only the value of recorded Cmax for O=C1CC[C@@H](N2Cc3cc(N4CCN(CC5CCN(c6ccc([C@@H]7c8ccc(O)cc8OC[C@@H]7c7ccccc7)cc6F)CC5)CC4)ccc3C2=O)C(=O)N1 [compound (1-h)]
Return: 68.8

----------
# experiment: Phase 1 study: plasma pharmacokinetics in patients
# Format: in vivo, human
# particulars: human, plasma, po, 100 mg, patient plasma, oral (1-g) 100 mg QD, C1D1, n = 3, mean; read-out: T½ (converted)
measure: half-life (h)
// units = h; emit number, no label

Enquiry: Provide only the value of recorded half-life for O=C1CC[C@H](N2Cc3cc(N4CCN(CC5CCN(c6ccc([C@@H]7c8ccc(O)cc8OC[C@@H]7c7ccccc7)cc6F)CC5)CC4)ccc3C2=O)C(=O)N1
Return: 20.2

----------
# experiment: Phase 1 study: plasma pharmacokinetics in patients
# Format: in vivo, human
# particulars: human, plasma, po, 600 mg, patient plasma after oral (1-g) 600 mg QD, C1D15, n = 4, *median value; read-out: Tmax* of (1-h)
measure: Tmax (h)
// units = h; emit number, no label

Enquiry: Provide only the value of recorded Tmax for O=C1CC[C@@H](N2Cc3cc(N4CCN(CC5CCN(c6ccc([C@@H]7c8ccc(O)cc8OC[C@@H]7c7ccccc7)cc6F)CC5)CC4)ccc3C2=O)C(=O)N1 [compound (1-h)]
Return: 10

----------
# experiment: Phase 1 study: plasma pharmacokinetics in patients
# Type: in vivo, human
# particulars: human, plasma, po, 300 mg, patient plasma after oral (1-g) 300 mg QD, C1D15, n = 10, mean; read-out: AUC0-24 h of (1-h)
# Source text: All patients received compound (1-g) orally. The time of day for administration of compound (1-g) was consistent. Compound (1-g) was taken whole with liquid(s) and with food in the morning. The patient avoided taking other medications at the same time as compound (1-g). […] If vomiting occurred after taking the study treatment, the patient was instructed not to retake the dose and record the dose recorded as taken in the dosing diary, noting that the patient vomited and marking the time of vomiting. […]
measure: AUC(0-t) (ng·h/mL)
// units = ng·h/mL; emit number, no label

Enquiry: Provide only the value of recorded AUC(0-t) for O=C1CC[C@@H](N2Cc3cc(N4CCN(CC5CCN(c6ccc([C@@H]7c8ccc(O)cc8OC[C@@H]7c7ccccc7)cc6F)CC5)CC4)ccc3C2=O)C(=O)N1
Return: 15400

----------
# experiment: Phase 1 study: plasma pharmacokinetics in patients
# Assay type: in vivo, human
# particulars: human, plasma, po, 300 mg, patient plasma after oral (1-g) 300 mg QD, C1D15, n = 10, mean; read-out: Cmax of (1-h)
measure: Cmax (ng/mL)
// units = ng/mL; emit number, no label

Enquiry: Provide only the value of recorded Cmax for O=C1CC[C@@H](N2Cc3cc(N4CCN(CC5CCN(c6ccc([C@@H]7c8ccc(O)cc8OC[C@@H]7c7ccccc7)cc6F)CC5)CC4)ccc3C2=O)C(=O)N1
Return: 680

----------
# experiment: Phase 1 study: plasma pharmacokinetics in patients
# Assay type: in vivo, human
# particulars: human, plasma, po, 200 mg, patient plasma, oral (1-g) 200 mg QD, C1D1, n = 12, mean; read-out: AUC0-24 h
measure: AUC(0-t) (ng·h/mL)
// units = ng·h/mL; emit number, no label

Enquiry: Provide only the value of recorded AUC(0-t) for O=C1CC[C@H](N2Cc3cc(N4CCN(CC5CCN(c6ccc([C@@H]7c8ccc(O)cc8OC[C@@H]7c7ccccc7)cc6F)CC5)CC4)ccc3C2=O)C(=O)N1
Return: 11200
